ASSAY DETAILS: Inhibition of protein phosphatase (PP2A) at 100 uM
ASSAY READOUT: inhibition
# do not omit the unit; it follows the number

In the examples that follow, each entry is paired with its recorded inhibition.
Data request: Look up inhibition: C=C(CC[C@H](O)[C@@]1(C)CC[C@H](C(C)(C)O)O1)[C@H]1CC[C@H]2O[C@@H]([C@]3(C)CCC(=O)O3)CC[C@]2(C)O1
Data returned: 49.4%

Data request: Look up inhibition: C=C(CC[C@H](O)[C@@]1(C)CC[C@H](C(C)(C)O)O1)[C@H]1CC[C@H]2O[C@@H]([C@]3(C)CC[C@@H](C(C)(C)O)O3)CC[C@]2(C)O1
Data returned: 40.4%

Next:
Data request: Look up inhibition: C=C(CC[C@H](O)[C@@]1(C)CC[C@H](C(C)(C)O)O1)[C@H]1CC[C@H]2O[C@@H]([C@]3(C)CC[C@@H](Br)C(C)(C)O3)CC[C@@]2(C)O1
Data returned: 11.4%

###

As shown below, each of these compounds has a reported inhibition value.
Species: Homo sapiens
ASSAY DETAILS: Inhibition of protein phosphatase (PP2A) at 10 uM using fluorescein diphosphate
Report the value in % with no unit label.

In the examples that follow, each entry is paired with its recorded inhibition.
Data request: Look up inhibition: C=C(CC[C@H](O)[C@@]1(C)CC[C@H](C(C)(C)O)O1)[C@H]1CC[C@H]2O[C@@H]([C@]3(C)CC[C@@H](C(C)(C)OC)O3)CC[C@]2(C)O1
Data returned: 4.7

Data request: Look up inhibition: C=C([C@H](O)C[C@H](O)[C@@]1(C)CC[C@H](C(C)(C)O)O1)[C@H]1CC[C@H]2O[C@@H]([C@]3(C)CC[C@@H](Br)C(C)(C)O3)CC[C@]2(C)O1
Data returned: 45.6

---
Data request: Look up inhibition: CC(C)(O)[C@H]1CC[C@](C)([C@@H](O)CC[C@](O)(CO)C2=CC[C@H]3O[C@@H]([C@]4(C)CC[C@@H](Br)C(C)(C)O4)CC[C@]3(C)O2)O1
Data returned: 93.2

###

ASSAY DETAILS: Inhibition of protein phosphatase (PP2A) at 100 uM
As shown below, each of these compounds has a reported inhibition value.
# do not omit the unit; it follows the number

Data request: Look up inhibition: C=C(CC[C@H]1O[C@@H](C(C)(C)O)CC[C@]1(C)O)[C@H]1CC[C@H]2O[C@@H]([C@]3(C)CC[C@@H](Br)C(C)(C)O3)CC[C@]2(C)O1
Data returned: 74.7%

Data request: Look up inhibition: C=C(CC[C@H](O)[C@@]1(C)CC[C@H](C(C)(C)O)O1)[C@H]1CC[C@H]2O[C@@H]([C@]3(C)CC[C@](OC)(C(C)C)O3)CC[C@]2(C)O1
Data returned: 43.1%

Data request: Look up inhibition: CC(C)(O)[C@H]1CC[C@](C)([C@@H](O)CC[C@](O)(CO)C2=CC[C@H]3O[C@@H]([C@]4(C)CC[C@@H](Br)C(C)(C)O4)CC[C@]3(C)O2)O1
Data returned: 99.1%

---
Data request: Look up inhibition: C/C(=C/C[C@@H](O)[C@]1(C)CC[C@H](C(C)(C)O)O1)[C@H]1CC[C@H]2O[C@@H]([C@]3(C)CC[C@@H](Br)C(C)(C)O3)CC[C@]2(C)O1
Data returned: 6.5%

Every entry's value here was drawn from ChEMBL document CHEMBL1136676.
